Where these numbers come from: paper PMC10141592

system: E. coli BAS901 (permeabilized); assay type: cell-based; settings: CLSI broth microdilution, Muller-Hinton broth, 5×10^5 CFU/mL, 24 hr at 37 C, OD600, performed in triplicate
*1 amine or outer side, *2 acyl side, *3 side chain or, on linkers, in order; H or OH if unused. Where a SMILES comes first, the peptide text is derived from it. Bridges are numbered along the chain shown (N, C = ends). [ ]: non-standard residue; d: D form. The star is where a group is joined. Dodecyloxycarbonyl = CCCCCCCCCCCCOC(=O)*; CH2C≡CC≡CCH2 = C(C#CC[*:2])#CC[*:1]; NMeS = CN[C@@H](CO)C(=O)O; Dab = NCC[C@H](N)C(=O)O
I'd appreciate it if you could supply MIC E. coli Δ values for the items below.

Under E. coli BAS901 (permeabilized): MIC E. coli Δ value of CCCCCCCCCCCCOC(=O)N[C@@H](CCN)C(=O)N(C)[C@H]1COCC#CC#CCOC[C@@H](C(N)=O)NC(=O)[C@H](C)NC1=O [Compound S7] (Dodecyloxycarbonyl-[Dab][NMeS]AS-NH2; linker 2-4 via CH2C≡CC≡CCH2) ? > 64 µg/mL

Under E. coli BAS901 (permeabilized): MIC E. coli Δ value of CCCCCCCCCCCCCCCCOC(=O)N[C@@H](CCN)C(=O)N(C)[C@H]1CC#CC#CC[C@H](C(N)=O)NC(=O)[C@H](C)NC1=O ? > 64 µg/mL

Under E. coli BAS901 (permeabilized): MIC E. coli Δ value of CCCCCCCCCCCCOC(=O)N[C@@H](CCN)C(=O)N[C@H]1CC#CC#CC[C@@H](C(N)=O)NC(=O)[C@H](C)NC1=O ? > 64 µg/mL
